# TESTED_TARGET: RNase E (Escherichia coli)
# Sequence (P21513 1-529): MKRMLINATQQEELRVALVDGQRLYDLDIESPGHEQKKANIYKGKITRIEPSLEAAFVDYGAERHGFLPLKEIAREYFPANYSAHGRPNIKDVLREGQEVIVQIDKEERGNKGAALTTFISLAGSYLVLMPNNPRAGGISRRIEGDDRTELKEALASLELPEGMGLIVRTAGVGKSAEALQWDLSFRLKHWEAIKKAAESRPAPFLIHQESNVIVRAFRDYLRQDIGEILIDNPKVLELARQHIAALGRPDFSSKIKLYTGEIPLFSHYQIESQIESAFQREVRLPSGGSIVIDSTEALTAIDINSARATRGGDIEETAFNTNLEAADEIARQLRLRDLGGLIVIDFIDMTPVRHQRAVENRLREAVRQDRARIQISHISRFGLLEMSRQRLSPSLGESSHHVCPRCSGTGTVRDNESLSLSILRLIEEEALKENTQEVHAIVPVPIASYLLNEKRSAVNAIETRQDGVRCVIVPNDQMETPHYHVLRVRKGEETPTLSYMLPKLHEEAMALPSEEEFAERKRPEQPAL
READOUT_TYPE: IC50 (mM)
Please respond with the number in mM and leave the unit unwritten.

These recorded examples may help you get a feel for the data.
>>> val("N[C@@H]1[C@@H](O)[C@H](O)[C@@H](COP(=O)(O)O)O[C@@H]1O [AS4, glucosamine-6-phosphate]")
2.1
>>> val("CC1=NNC(=O)C1CCC(=O)O (stereo not drawn) [5′S1]")
2.5

IC50 recorded for this molecule, CC(C)c1c(O)nc(SCCC(=O)O)[nH]c1=O [AS2] , is 1.9
